- assay-notes: viability loss with induced miR-34 in A549 – imaging, A549 dox-inducible miR-34, nuclei and caspase counts, primary screen (AID 1347080)
- particulars: A549 miR-34 inducible, Hoechst nuclei count, 48 h; measured here: relative caspase fold change +Dox/-Dox
Returns 1 (yes) if the recorded fold change is greater than or equal to 1, and 0 (no) otherwise.

Use the examples below as a reference point.
{"columns": ["compound", "class-assignment"],
 "data": [
  ["C=CCc1ccc(O)c(-c2cc(CC=C)ccc2O)c1", "0 (no)"],
  ["CCCCC/C=C\\C/C=C\\C/C=C\\C=C\\[C@@H](O)CCCC(=O)O", "1 (yes)"],
  ["O=C(CSc1nc2c(c(=O)n1-c1ccccc1)SCC2)Nc1ccc(-c2ccccc2)cn1", "0 (no)"],
  ["OCC1OC(n2cnc3c(NC4CCCC4O)ncnc32)C(O)C1O (centres undefined)", "0 (no)"],
  ["NOCC(=O)O", "1 (yes)"]
]}

Is fold change at least 1? Consider Cc1ccccc1CN1C2=NCCN2C(=O)C2=C1CCN(Cc1ccccc1)C2 0 (no)

Tell me whether fold change is at least 1 here: CC(=O)O[C@]1(C(C)=O)CC[C@H]2[C@@H]3C=C(C)C4=CC(=O)CC[C@@H]4[C@H]3CC[C@@]21C 0 (no)

Say whether CC(C)(C(=O)NCC(F)(F)C(F)(F)F)C(=O)NC1C(=O)Nc2ccccc2-c2ccccc21 (centres undefined) shows fold change of 1 or more. 0 (no)

Is it the case that CC(C=CC(=O)NO)=CC(C)C(=O)c1ccc(N(C)C)cc1 (centres undefined) has fold change reaching or exceeding 1? 0 (no)

Reported fold change at or above 1? COC1C(O)CC(=O)OC(C)CC=CC=CC(OC2CCC(N(C)C)C(C)O2)C(C)CC(CC=O)C1OC1OC(C)C(OC2C[C@](C)(O)C(O)C(C)O2)C(N(C)C)C1O (some centres undefined) 0 (no)

----------
- assay-notes: RCMB18 cell growth, single agent and combined, cisplatin and BGB IC40 combos (AID 1671462);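 also: cells exposed to compound for four days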
- particulars: RCMB18 medulloblastoma cells, measured here: combination with cisplatin, at 0.5 µM, stronger effect = higher value
measurement-type: inhibition (%)
Answers are plain numbers, in %.

Below, each entry is followed by its recorded inhibition result.
{"columns": ["compound", "inhibition, %"],
 "data": [
  ["O=C1N=c2ccccc2=C1c1c(O)[nH]c2ccccc12", 81.1],
  ["CC(C=CC(=O)NO)=CC(C)C(=O)c1ccc(N(C)C)cc1 (stereo not given)", 87.1]
]}

Please give inhibition for each item listed below.
1. C[n+]1ccc(-c2c3nc(c(-c4cc[n+](C)cc4)c4ccc([nH]4)c(-c4cc[n+](C)cc4)c4nc(c(-c5cc[n+](C)cc5)c5ccc2[nH]5)C=C4)C=C3)cc1
2. CCC(C)C(=O)OC1CC(C)C=C2C=CC(C)C(CCC3CC(O)CC(=O)O3)C21 (stereo not given)

[-4.98, 2.71]

----------
I'd be grateful if you could share measured cell count for these entries.
- assay-notes: viability loss with induced miR-34 in A549 – imaging, A549 dox-inducible miR-34, nuclei and caspase counts, primary screen (AID 1347080)
- particulars: A549 miR-34 inducible, Hoechst nuclei count, 48 h; measured here: total cells without miR-34 induction
Answers are plain numbers.

{"columns": ["compound", "data-value"],
 "data": [
  ["CC=CC(=O)N(CC)c1ccccc1C", 10100],
  ["Nc1nc2ccccc2c(=O)[nH]1", 9860],
  ["N[C@H](CCCP(=O)(O)O)C(=O)O", 10400],
  ["CCCC(=O)Nc1ncnc2c1ncn2[C@@H]1O[C@@H]2OP(=O)(O)OC[C@H]2[C@H]1OC(=O)CCC", 10600],
  ["CCNC(=O)c1cccnc1N1CCN(c2ccc(Cl)cc2)CC1", 8970]
]}

Batch lookup, cell count per entry.
1. CC[C@H](C)[C@H](NC(=O)c1nc2ccccc2c(=O)[nH]1)C(=O)OC
2. CCCCCCCCCC(=O)OC[C@H](CO)OC(=O)CCCCCCCCC
3. O=C1CC(=O)c2c(Cl)c(Cl)c(Cl)c(Cl)c21
4. C=CCC1C=C(C)CC(C)CC(OC)C2O[C@@](O)(C(=O)C(=O)N3CCCC[C@H]3C(=O)OC(C(C)=CC3CCC(O)C(OC)C3)C(C)C(O)CC1=O)C(C)CC2OC (stereo partly specified)
5. C=CCNc1ncnc2ccc(Br)cc12
6. O=C1c2c(O)cc(O)cc2OC(c2cc(O)c(O)c(O)c2)C1O (stereo unspecified)
7. NC1CCCN(c2c(C=C3SC(=O)NC3=O)cccc2-c2ccccc2)C1 (stereo unspecified)

[8940, 5600, 8350, 8580, 7810, 10600, 9110]

Batch lookup, cell count per entry.
1. CN(C)c1ccc(O)c2c1CC1CC3[C@@H](N(C)C)C(=O)C(C(N)=O)=C(O)[C@]3(O)C(=O)C1=C2O (stereo partly specified)
2. COc1ccccc1N1CCN(CCN(C(=O)c2ccc(F)cc2)c2ccccn2)CC1
3. CO[C@@]1(NC(=O)C2SC(=C(C(N)=O)C(=O)O)S2)C(=O)N2C(C(=O)O)=C(CSc3nnnn3C)CS[C@@H]21 (stereo partly specified)
4. CC1CC(C(=O)O)C2CC[C@]3(C)C(=CC[C@H]4[C@@]5(C)CCC(O)C(C)(C)[C@@H]5CC[C@]43C)[C@H]2C1C (stereo partly specified)

5720
9450
9980
9470

Here are 2 compounds. What values of cell count were reported for them?
1. COc1cc(C=CC(=O)O)ccc1O
2. COc1ccc(-c2oc3ncnc(NCCO)c3c2-c2ccc(OC)cc2)cc1

8380
6450

List cell count for every entry below, keeping the order given.
1. C[C@H](O)C(=O)C1=Nc2c(nc(N)[nH]c2=O)NC1
2. Brc1ccc([C@H]2CN3CCSC3=N2)cc1
3. C[C@H]1CC[C@H]2[C@@H](C)C(OC(=O)CCC(=O)O)O[C@H]3O[C@@]4(C)CC[C@@H]1[C@]32OO4 (stereo partly specified)

1. 10500
2. 9490
3. 4430

----------
- assay-notes: drug combination growth inhibition, ovarian cancer – cell-based, oncology-focused library, rucaparib conditional, profiling panel (AID 1508598)
- particulars: patient-derived ovarian cancer cells, CellTiter-Glo viability, 144 h; at 0.00122 µM; OCI-P5x cells; with rucaparib 20 µM; stronger effect = lower value; 100% = cells with rucaparib alone
Where a SMILES comes first, the peptide text is derived from it. The star is where a group is joined. Cbz = O=C(OCc1ccccc1)*; CH2F = FC*
measurement-type: viability (%)
Give bare numbers, in %.

{"columns": ["compound", "data-value"],
 "data": [
  ["CC[C@]1(O)C[C@@H]2CN(CCc3c([nH]c4ccccc34)[C@@](C(=O)OC)(c3cc4c(cc3OC)N(C=O)[C@H]3[C@@](O)(C(=O)OC)[C@H](OC(C)=O)[C@]5(CC)C=CCN6CC[C@@]43[C@@H]65)C2)C1", 73.6]
]}

I'm hoping you can list viability for every compound here, please.
1. CO[C@H]1C[C@H]2CC[C@@H](C)[C@@](O)(O2)C(=O)C(=O)N2CCCC[C@H]2C(=O)O[C@H]([C@H](C)C[C@@H]2CC[C@H](OC(=O)C(C)(CO)CO)[C@H](OC)C2)CC(=O)[C@H](C)/C=C(\C)[C@@H](O)[C@@H](OC)C(=O)[C@H](C)C[C@H](C)/C=C/C=C/C=C/1C
2. COc1cc([C@H]2c3cc4c(cc3[C@@H](O[C@@H]3O[C@@H]5CO[C@@H](C)O[C@H]5[C@H](O)[C@@H]3O)[C@H]3COC(=O)[C@H]23)OCO4)cc(OC)c1O
3. O=C(O)c1cc(I)ccc1NC(=O)[C@H](Cc1ccccc1)NCc1ccccc1
4. COC(=O)C[C@H](NC(=O)[C@H](C)NC(=O)[C@@H](NC(=O)OCc1ccccc1)C(C)C)C(=O)CF (Cbz-Val-Ala-Asp(OMe)-CH2F)

[77.3, 96.5, 107, 104]

----------
I'd be grateful if you could share measured survival for these entries.
- assay-notes: compounds altering viability of human ES cells (AID 493140);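 also: cells exposed to compounds for four days before counting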
- particulars: human embryonic stem cell survival screen; stronger effect = higher value
Answers are plain numbers.

Solved entries:
{"columns": ["compound", "survival"],
 "data": [
  ["N#CC(C#N)=C(N)/C(C#N)=C/c1cc(O)c(O)c(O)c1", 82.2],
  ["CCC(=O)OC1(C(=O)CCl)[C@@H](C)C[C@H]2[C@@H]3CCC4=CC(=O)C=C[C@]4(C)[C@@]3(F)[C@@H](O)C[C@@]21C (some centres undefined)", 2.5],
  ["CC[N+](CC)(CC)CCC(O)(c1ccccc1)C1CCCCC1 (centres undefined)", 3.08]
]}

Quick note, survival for CC1(C)S[C@@H]2[C@H](NC(=O)[C@H](N)c3ccccc3)C(=O)N2[C@H]1C(=O)OC1OC(=O)c2ccccc21 (some centres undefined) landed at 7.92

Origin of measurements: PubChem BioAssay
